System: HSkMC (human skeletal muscle cells)
ASSAY_REMARKS: cytotoxicity call (relative viability < 0.9)
RUN_PARAMETERS: 10 µM
Out of some 39,000 compounds screened, about 1,500 (3.8%) were called active. Shown is part of a subset that was picked to be rich in actives.
Outcomes: active, inactive

| CHEMICAL_SMILES | CLASS_NAME |
| --- | --- |
| C=CC[C@@H](CC(=O)N(CCO)Cc1ccccc1)C(=O)N[C@@H](COC(=O)[C@@H](CC=C)Cc1ccc(F)cc1)Cc1c[nH]c2ccccc12 | active |
| C=CC[C@H](CC(=O)N(CCO)Cc1ccccc1)C(=O)N[C@H](COC(=O)[C@@H](CC=C)CC(=O)OC(C)(C)C)Cc1c[nH]c2ccccc12 | inactive |
| C=CC[C@@H](CC(=O)N(CCO)Cc1ccccc1)C(=O)N[C@@H](COC(=O)[C@@H](CC=C)CC(=O)OC(C)(C)C)Cc1c[nH]c2ccccc12 | inactive |
| C=CC[C@@H](CC(=O)N(CCO)Cc1ccccc1)C(=O)N[C@@H](COC(=O)[C@H](CC=C)Cc1ccc(F)cc1)Cc1c[nH]c2ccccc12 | active |
